For each entry below, report its MIC value.
- System: Klebsiella pneumoniae
- test_name: Synergistic antibacterial activity against Klebsiella pneumoniae 972/1910 producing KPC-3 assessed as cefepime MIC at 4 ug/ml by broth microdilution method
- Type: functional
- condition_set: dose 4 µg/ml
Dear colleague, please return just the value in µg/mL, with no unit written.

Enquiry: What value of MIC has been recorded for this entry: "O.O=C(NC1CCNCC1)[C@@H]1CC[C@@H]2CN1C(=O)N2OS(=O)(=O)O"
Return: 0.25

Enquiry: Need MIC of "N#C[C@@H]1CC[C@@H]2CN1C(=O)N2OS(=O)(=O)[O-].[Na+]" , thanks.
Return: 0.25
